The entries below come with measured BAF3-KDR (MIN IL3) pIC50 values attached.
testedOn: Ba/F3-KDR-transfected cells (Homo sapiens, UniProt P35968)
Construct: BAF3-KDR (MIN IL3) pIC50; other: minus IL3
Sequence (P35968 whole entry, change not shown): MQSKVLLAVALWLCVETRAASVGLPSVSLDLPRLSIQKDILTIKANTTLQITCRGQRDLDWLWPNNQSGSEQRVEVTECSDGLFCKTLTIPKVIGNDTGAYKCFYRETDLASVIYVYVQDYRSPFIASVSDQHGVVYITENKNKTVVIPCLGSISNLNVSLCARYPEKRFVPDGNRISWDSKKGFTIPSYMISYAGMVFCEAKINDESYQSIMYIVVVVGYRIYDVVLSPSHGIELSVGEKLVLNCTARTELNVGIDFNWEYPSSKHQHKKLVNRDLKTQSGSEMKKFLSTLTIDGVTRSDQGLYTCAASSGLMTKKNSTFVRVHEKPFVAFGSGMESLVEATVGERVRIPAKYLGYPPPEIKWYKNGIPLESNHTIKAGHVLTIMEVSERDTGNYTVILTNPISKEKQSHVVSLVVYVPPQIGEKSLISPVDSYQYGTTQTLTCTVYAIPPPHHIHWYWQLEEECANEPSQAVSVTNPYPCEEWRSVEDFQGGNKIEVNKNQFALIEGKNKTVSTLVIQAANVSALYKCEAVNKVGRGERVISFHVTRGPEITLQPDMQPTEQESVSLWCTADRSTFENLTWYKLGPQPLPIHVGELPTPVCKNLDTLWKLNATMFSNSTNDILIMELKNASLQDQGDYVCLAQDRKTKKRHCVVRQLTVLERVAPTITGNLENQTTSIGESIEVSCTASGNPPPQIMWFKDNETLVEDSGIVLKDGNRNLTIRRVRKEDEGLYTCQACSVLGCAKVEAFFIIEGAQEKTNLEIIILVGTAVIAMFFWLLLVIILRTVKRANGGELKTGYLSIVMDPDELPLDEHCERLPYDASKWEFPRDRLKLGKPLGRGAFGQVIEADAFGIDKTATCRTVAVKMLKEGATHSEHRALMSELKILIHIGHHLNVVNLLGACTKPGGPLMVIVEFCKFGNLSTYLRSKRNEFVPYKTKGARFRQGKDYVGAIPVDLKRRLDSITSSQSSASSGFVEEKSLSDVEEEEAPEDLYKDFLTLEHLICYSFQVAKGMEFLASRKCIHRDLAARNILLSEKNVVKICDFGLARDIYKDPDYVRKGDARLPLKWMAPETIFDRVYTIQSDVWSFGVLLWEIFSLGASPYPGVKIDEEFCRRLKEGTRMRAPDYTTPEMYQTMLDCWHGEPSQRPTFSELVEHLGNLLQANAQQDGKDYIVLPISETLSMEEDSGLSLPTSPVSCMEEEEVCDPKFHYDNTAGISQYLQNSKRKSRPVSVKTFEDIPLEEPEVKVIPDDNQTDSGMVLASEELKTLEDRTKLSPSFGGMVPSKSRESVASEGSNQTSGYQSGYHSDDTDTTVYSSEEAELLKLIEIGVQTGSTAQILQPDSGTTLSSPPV
assayName: Ba/F3-KDR (minus IL3) cellular proliferation assay, Alamar Blue
Format: cell-based
Experimental: Ba/F3-KDR (Minus IL3 or Plus IL3) (Cellular Proliferation Assay) In a 384 well plate, 100 n1 of compound dilution in DMSO was sprayed before adding 50 μl cell culture medium (phenol red free RPMI-1640, 10% FBS, 2 mM L-Glutamine and 50 μg/ml Gentamycin) containing 20000 cells per well of Ba/F3-KDR-transfected cells. Cells were put in an incubator at 37° C. and 5% CO2. […]
observationType: BAF3-KDR (MIN IL3) pIC50

[
  {
    "compound": "COc1cc(OC)cc(N(CC2CCC(=O)N2)c2ccc3ncc(-c4cnn(C)c4)nc3n2)c1 (centres unmarked) [Compound 49]",
    "observationType": "BAF3-KDR (MIN IL3) pIC50",
    "sign": "=",
    "reported": 5.16
  },
  {
    "compound": "COc1cc(OC)c(F)c(N(Cc2c[nH]cn2)c2ccc3ncc(-c4cnn(C)c4)nc3n2)c1",
    "observationType": "BAF3-KDR (MIN IL3) pIC50",
    "sign": "=",
    "reported": 6.70
  },
  {
    "compound": "COc1ccc(Cl)c(N(CC2CCC(=O)N2)c2ccc3ncc(-c4cnn(C)c4)nc3n2)c1Cl (centres unmarked) [Compound 94]",
    "observationType": "BAF3-KDR (MIN IL3) pIC50",
    "sign": "<",
    "reported": 5
  },
  {
    "compound": "COc1cc(OC)c(F)c(N(CC2CCC(=O)N2)c2ccc3ncc(-c4cnn(C)c4)nc3n2)c1 (centres unmarked) [Compound 52]",
    "observationType": "BAF3-KDR (MIN IL3) pIC50",
    "sign": "=",
    "reported": 5.56
  },
  {
    "compound": "COc1cc(/N=c2\\ccc3ncc(-c4cnn(C)c4)nc3n2CC2CCC(=O)N2C)c(F)c(OC)c1 (centres unmarked) [Compound 160]",
    "observationType": "BAF3-KDR (MIN IL3) pIC50",
    "sign": "=",
    "reported": 5.89
  },
  {
    "compound": "COc1cc(OC)c(F)c(N(Cc2ncc[nH]2)c2ccc3ncc(N4C[C@@H](C)N[C@@H](C)C4)nc3n2)c1",
    "observationType": "BAF3-KDR (MIN IL3) pIC50",
    "sign": "=",
    "reported": 5.13
  },
  {
    "compound": "COCC(O)CN(c1cc(OC)cc(OC)c1)c1ccc2ncc(-c3cnn(C)c3)nc2n1 (centres unmarked)",
    "observationType": "BAF3-KDR (MIN IL3) pIC50",
    "sign": "=",
    "reported": 5.1
  },
  {
    "compound": "COc1cc(OC)cc(N(CC#Cc2ncccc2OC)c2ccc3ncc(-c4cnn(C)c4)nc3n2)c1",
    "observationType": "BAF3-KDR (MIN IL3) pIC50",
    "sign": "<",
    "reported": 5
  },
  {
    "compound": "COc1cc(OC)c(F)c(N(CCS(C)(=O)=O)c2ccc3ncc(-c4cnn(C)c4)nc3n2)c1",
    "observationType": "BAF3-KDR (MIN IL3) pIC50",
    "sign": "=",
    "reported": 5.92
  },
  {
    "compound": "COc1cc(OC)cc(N(CC(C)(C)O)c2ccc3ncc(-c4cnn(C)c4)nc3n2)c1",
    "observationType": "BAF3-KDR (MIN IL3) pIC50",
    "sign": "=",
    "reported": 5.02
  }
]

Cited source: patent US9309242B2
